Source listed as patent US10428017B2.

pEC50: recorded values
# tgt: F508delCFTR (Homo sapiens, UniProt P13569, DEL508-508)
# Construct: expressed in transfected cells; host or cells: CFBE4lo-F508delCFTR-HRP cells (human lung derived epithelial cell line, doxycycline-inducible)
# Sequence (P13569 with tags, fused parts or gaps DEL508-508): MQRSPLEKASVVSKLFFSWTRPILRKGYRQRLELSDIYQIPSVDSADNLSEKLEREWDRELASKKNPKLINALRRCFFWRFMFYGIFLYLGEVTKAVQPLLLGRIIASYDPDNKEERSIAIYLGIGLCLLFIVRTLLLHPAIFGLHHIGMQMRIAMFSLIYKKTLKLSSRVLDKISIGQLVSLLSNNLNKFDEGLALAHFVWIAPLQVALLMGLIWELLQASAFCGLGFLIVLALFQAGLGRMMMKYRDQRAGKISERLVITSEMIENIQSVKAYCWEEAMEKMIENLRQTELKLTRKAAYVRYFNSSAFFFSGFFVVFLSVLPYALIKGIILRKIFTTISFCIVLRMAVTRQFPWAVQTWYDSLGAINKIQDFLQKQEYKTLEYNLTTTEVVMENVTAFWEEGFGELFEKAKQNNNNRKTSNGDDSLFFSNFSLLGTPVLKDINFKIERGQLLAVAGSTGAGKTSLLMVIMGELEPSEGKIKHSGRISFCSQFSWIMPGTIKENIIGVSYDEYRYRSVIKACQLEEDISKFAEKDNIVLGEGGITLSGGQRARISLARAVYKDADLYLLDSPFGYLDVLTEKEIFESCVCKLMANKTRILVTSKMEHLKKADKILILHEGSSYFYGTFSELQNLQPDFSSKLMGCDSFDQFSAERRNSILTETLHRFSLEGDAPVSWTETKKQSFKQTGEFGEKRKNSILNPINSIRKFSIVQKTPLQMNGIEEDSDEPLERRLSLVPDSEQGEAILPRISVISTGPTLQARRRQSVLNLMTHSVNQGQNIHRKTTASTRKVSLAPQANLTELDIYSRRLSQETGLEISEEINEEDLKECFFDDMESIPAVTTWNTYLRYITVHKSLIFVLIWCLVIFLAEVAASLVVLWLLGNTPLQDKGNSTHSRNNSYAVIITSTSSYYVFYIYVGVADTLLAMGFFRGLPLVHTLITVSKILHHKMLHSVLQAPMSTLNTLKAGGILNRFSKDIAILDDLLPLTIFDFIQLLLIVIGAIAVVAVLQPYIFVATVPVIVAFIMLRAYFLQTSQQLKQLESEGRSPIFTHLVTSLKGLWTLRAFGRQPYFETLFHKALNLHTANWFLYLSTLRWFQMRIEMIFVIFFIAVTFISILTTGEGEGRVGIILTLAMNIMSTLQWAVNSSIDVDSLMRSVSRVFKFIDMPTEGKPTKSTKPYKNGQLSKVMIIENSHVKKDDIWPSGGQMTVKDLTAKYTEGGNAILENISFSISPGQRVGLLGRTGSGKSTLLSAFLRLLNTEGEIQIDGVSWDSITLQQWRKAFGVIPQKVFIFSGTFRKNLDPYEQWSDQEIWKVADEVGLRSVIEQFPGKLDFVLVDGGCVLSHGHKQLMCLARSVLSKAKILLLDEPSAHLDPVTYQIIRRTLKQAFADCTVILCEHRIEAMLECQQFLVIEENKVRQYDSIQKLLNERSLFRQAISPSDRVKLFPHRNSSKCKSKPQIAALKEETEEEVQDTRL
# protocol.notes: Cell Surface Expression-Horse Radish Peroxidase (CSE-HRP) Assay
# Type: cell-based
# experimental.parameters: with co-corrector 2 μM 3-[(2R,4R)-4-({[1-(2,2-difluoro-1,3-benzodioxol-5-yl)cyclopropyl]carbonyl}amino)-7-methoxy-3,4-dihydro-2H-chromen-2-yl]benzoic acid; CFBE4lo-F508delCFTR-HRP cells, 18-24 hours at 33° C.; read-out: EC50 (with co-corrector)
pEC50: −log10 of the molar value.

{"molecule": "COc1ccc(C2CCC2)c2c1[C@H](C(=O)NS(=O)(=O)c1cccc3ncccc13)CO2 (single isomer, unassigned) [Example 83]", "pEC50": "> 5.52"}
{"molecule": "O=C(NS(=O)(=O)c1cccc2ccccc12)C1COc2ccccc21 (stereo not drawn) [Example 34]", "pEC50": "≤ 5.00"}
{"molecule": "CCC1(C(=O)NS(=O)(=O)c2cccc3ccccc23)COc2c(OC)cccc21 (stereo not drawn) [Example 15]", "pEC50": "5.00 to 5.52"}

Recorded pEC50 (molecule Cc1ccc2c(c1)C(C(=O)NS(=O)(=O)c1cccc3ccccc13)(c1ccccc1)CCO2 (stereo not drawn) [Example 18] ): > 5.52

In plain terms, Cc1ccccc1S(=O)(=O)NC(=O)C1COc2ccccc21 (stereo not drawn) [Example 29] has a documented pEC50 of ≤ 5.00

// COc1ccc(Br)c2c1[C@H](C(=O)NS(=O)(=O)c1cccc3ccccc13)CCO2 [Example 36] : pEC50 value = > 5.52

For this molecule ( COc1ccc(Cl)c2c1[C@@H](C(=O)NS(=O)(=O)c1cccc3ccccc13)CO2 (single isomer, unassigned) [Example 67] ), measured pEC50 is > 5.52

GET /value?item= COc1ccc(C2CCC2)c2c1[C@H](C(=O)NS(=O)(=O)c1cccc3c1CCCN3)CC(C)(C)O2 (single isomer, unassigned) [Example 97] &field=pEC50 returns > 5.52

Noted for CCC1(C(=O)NS(=O)(=O)c2cccc3ccccc23)COc2c(Br)cccc21 (stereo not drawn) [Example 22] : its pEC50 reads 5.00 to 5.52
